Target: human Fc (human)
Assay: ELISA, negative control
Assignment: determine reported optical density for the given binders.
Give bare numbers, in OD.

368_D09 (antibody, V domains shown) VH: EVQLLESGGGLVQPGGSLRLSCAASGFTFDSYGMHWVRQAPGKGLEWVAGINYNSGYKSYADSVKGRFTISRDNSKNTLYLQMNSLRAEDTAVYYCARAANWHDTHLDYWGQGTLVTVSS VL: DIQMTQSPSSLSASVGDRVTITCRASQSIVSYVNWYQQKPGKAPKLLIYAATSLASGVPSRFSGSGSGTDFTLTISSLQPEDFATYYCQQSYDNPLTFGGGTKVEIK | 0.212
375_H05 (antibody, V domains shown) VH: EVQLLESGGGLVQPGGSLRLSCAASGFTFSSYSMNWVRQAPGKGLEWVSNINYNGGYTGYADSVKGRFTISRDNSKNTLYLQMNSLRAEDTAVYYCARGANWHDTALDYWGQGTLVTVSS VL: DIQMTQSPSSLSASVGDRVTITCRASQSILSYVNWYQQKPGKAPKLLIYAATSRASGVPSRFSGSGSGTDFTLTISSLQPEDFATYYCQQSYDTPLTFGGGTKVEIK | 0.167
374_E04 (antibody, V domains shown) VH: EVQLLESGGGLVQPGGSLRLSCAASGFTFSSYSMNWVRQAPGKGLEWVSGINYNSGYKSYADSVKGRFTISRDNSKNTLYLQMNSLRAEDTAVYYCARSATWHDTHLDYWGQGTLVTVSS VL: DIQMTQSPSSLSASVGDRVTITCRASQSILSYLNWYQQKPGKAPKLLIYAVTSRASGVPSRFSGSGSGTDFTLTISSLQPEDFATYYCQQSYNNPLTFGGGTKVEIK | 0.169
368_G11 (antibody, V domains shown) VH: EVQLLESGGGLVQPGGSLRLSCAASGFTFDSYGMHWVRQAPGKGLEWVSGINYNSGYKSYADSVKGRFTISRDNSKNTLYLQMNSLRAEDTAVYYCARAATWHDTALDYWGQGTLVTVSS VL: DIQMTQSPSSLSASVGDRVTITCRASQSILTYLNWYQQKPGKAPKLLIYAATSRASGVPSRFSGSGSGTDFTLTISSLQPEDFATYYCQQSDNTPLTFGGGTKVEIK | 0.306

Look at each binder and report its optical density.
1. 373_C03 (antibody, V domains shown) VH: EVQLLESGGGLVQPGGSLRLSCAASGFTFSSYSMNWVRQAPGKGLEWVSGINYNGGYKSYADSVKGRFTISRDNSKNTLYLQMNSLRAEDTAVYYCARGANWHDTALDYWGQGTLVTVSS VL: DIQMTQSPSSLSASVGDRVTITCRASQSIVTYLNWYQQKPGKAPKLVIYAATSRASGVPSRFSGSGSGTDFTLTISSLQPEDFATYYCQQSYDSPLTFGGGTKVEIK
2. 370_H08 (antibody, V domains shown) VH: EVQLLESGGGLVQPGGSLRLSCAASGFTFSSYGMHWVRQAPGKGLEWVASINYNGGYTSYADSVKGRFTISRDNSKNTLYLQMNSLRAEDTAVYYCARAANWHDTHLDYWGQGTLVTVSS VL: DIQMTQSPSSLSASVGDRVTITCRASQSILSYVNWYQQKPGKAPKLLIYAATSRHSGVPSRFSGSGSGTDFTLTISSLQPEDFATYYCQQSYSLPLTFGGGTKVEIK
3. 371_G11 (antibody, V domains shown) VH: EVQLLESGGGLVQPGGSLRLSCAASGFTFSSYGMNWVRQAPGKGLEWVSNINYNSGYTSYADSVKGRFTISRDNSKNTLYLQMNSLRAEDTAVYYCARGANWHDTALDYWGQGTLVTVSS VL: DIQMTQSPSSLSASVGDRVTITCRASQSILSYVNWYQQKPGKAPKLLIYAATSLASGVPSRFSGSGSGTDFTLTISSLQPEDFATYYCQQSYDSPLTFGGGTKVEIK
4. 371_A10 (antibody, V domains shown) VH: EVQLLESGGGLVQPGGSLRLSCAASGFTFDDYSMNWVRQAPGKGLEWVSGINYNGGYKGYADSVKGRFTISRDNSKNTLYLQMNSLRAEDTAVYYCARGANWHDTALDYWGQGTLVTVSS VL: DIQMTQSPSSLSASVGDRVTITCRASQSIVSYLNWYQQKPGKAPKLVIYAATSRASGVPSRFSGSGSGTDFTLTISSLQPEDFATYYCQQSYENPLTFGGGTKVEIK
5. 375_A08 (antibody, V domains shown) VH: EVQLLESGGGLVQPGGSLRLSCAASGFTFSSYSMNWVRQAPGKGLEWVAGINYNGGYTGYADSVKGRFTISRDNSKNTLYLQMNSLRAEDTAVYYCARGANWHDTALDYWGQGTLVTVSS VL: DIQMTQSPSSLSASVGDRVTITCRASQSIVTYLNWYQQKPGKAPKLLIYAATSRASGVPSRFSGSGSGTDFTLTISSLQPEDFATYYCQQSYESPLTFGGGTKVEIK
6. 374_B03 (antibody, V domains shown) VH: EVQLLESGGGLVQPGGSLRLSCAASGFTFDSYSMNWVRQAPGKGLEWVSGINYNGGYTSYADSVKGRFTISRDNSKNTLYLQMNSLRAEDTAVYYCARGANWHDTALDYWGQGTLVTVSS VL: DIQMTQSPSSLSASVGDRVTITCRASQSILTYLNWYQQKPGKAPKLVIYAATSRASGVPSRFSGSGSGTDFTLTISSLQPEDFATYYCQQSYDSPLTFGGGTKVEIK

Resp:
[0.171, 0.538, 0.399, 0.338, 0.205, 0.166]
